Experiment: MTT cytotoxicity assay on BEAS-2B cells
Assay type: cell-based
Details: BEAS-2B cells (normal human lung cells), BEAS-2B normal human lung cells, read-out: IC50, cytotoxic effect on BEAS-2B cells
PARAMETER: IC50 (µM)
Give a bare numeral; the unit µM is implied.

query: Would you kindly share the measured IC50 for COc1cc(O)cc2c1-c1ccc(O)c(-c3c(O)cc(OC)c4c3CCc3cc(O)ccc3-4)c1CC2 [Compound 1] ?
result: 15.2

---

Tested on: A549 cells
Assay: MTT cytotoxicity assay on A549 cells
Assay type: cell-based, human
Conditions: A549 cells, mean ± SD, n = 3, read-out: IC50, cytotoxicity against A549 cells
Field: pIC50. Provide a value for each of the compounds that follow.
Hey, just a heads up that pIC50 is the negative log base 10 of the concentration in molar.

query: Would you kindly share the measured pIC50 for COc1ccc(Cc2c(O)cc(O)c3c2CCc2cc(OC)ccc2-3)cc1 [Compound 13, pleioanthrenin] ?
result: 5.02

query: Would you kindly share the measured pIC50 for COc1cc(O)cc2c1-c1cc(-c3c(O)cc(OC)c4c3CCc3cc(O)ccc3-4)c(O)cc1CC2 [Compound 4, gymconopin C] ?
result: 5.00

query: Would you kindly share the measured pIC50 for COc1cc(O)c(-c2c(O)cc(OC)c3c2ccc2cc(O)ccc23)c2ccc3cc(O)ccc3c12 [Compound 6, blestriarene C] ?
result: 5.02

query: Would you kindly share the measured pIC50 for COc1cc(O)cc2c1-c1ccc(O)c(-c3c(O)cc(OC)c4c3CCc3cc(O)ccc3-4)c1CC2 [Compound 1] ?
result: 5.16

query: Would you kindly share the measured pIC50 for COc1cc(O)c(-c2c(O)cc3c(c2OC)-c2ccc(O)c(Cc4ccc(O)cc4)c2CC3)c2c1-c1ccc(O)cc1CC2 [Compound 2] ?
result: 5.06

query: Would you kindly share the measured pIC50 for COc1cc(O)c(Cc2ccc(O)cc2)c2c1-c1ccc(Oc3c(O)cc(OC)c4c3CCc3cc(O)ccc3-4)cc1CC2 [Compound 8, blestanol C] ?
result: 5.06
